Numbers sourced from patent US20260325654A1.

- Target system: KRAS(G12D) (Homo sapiens, UniProt P01116, G12D)
- Protocol notes: cell-based
- Type: cell-based
- Design: Cell lines SW1990 and GP2D that express KRAS(G12D); host or cells: SW1990
- Applied conditions: read-out: WB data SW1990 DC50; SW1990, KRAS degradation, 24 hr
- Sequence (P01116 1-188 isoform P01116-2 G12D): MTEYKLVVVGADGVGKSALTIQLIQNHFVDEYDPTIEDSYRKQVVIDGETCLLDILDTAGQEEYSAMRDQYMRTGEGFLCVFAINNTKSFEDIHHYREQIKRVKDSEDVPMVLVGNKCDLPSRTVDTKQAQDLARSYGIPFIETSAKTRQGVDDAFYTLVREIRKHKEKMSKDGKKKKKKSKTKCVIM
Assign DC50 to each entry below.

Worked examples, 5 compounds total:
>  <Compound>
C#Cc1c(F)ccc2cc(O)cc(-c3ncc4c(N5CC6CCC(C5)N6)nc(OCC5(CN6CCN(CC7CCN(c8ccc9c(=O)n(C%10CCC(=O)NC%10=O)ncc9c8)CC7)CC6)CC5)nc4c3F)c12 (stereo not drawn) [Compound 88]

>  <Experimental value>
> 1 µM

$$$$
>  <Compound>
C#Cc1cccc2cc(O)cc(-c3ncc4c(N5CC6CCC(C5)N6C(=O)C(F)(F)F)nc(OCC5(CN6CCN(CC7CCN(c8ccc9c(c8)CN(C8CCC(=O)NC8=O)C9=O)CC7)CC6)CC5)nc4c3F)c12 (stereo not drawn) [Compound 57]

>  <Experimental value>
> 1 µM

$$$$
>  <Compound>
C#Cc1c(F)ccc2cc(O)cc(-c3ncc4c(N5CC6CCC(C5)N6C(=O)C(F)(F)F)nc(OCC5(CN6CCN(CC7CCN(c8ccc9c(c8)CN(C8CCC(=O)NC8=O)C9=O)CC7)CC6)CC5)nc4c3F)c12 (stereo not drawn) [Compound 78]

>  <Experimental value>
0.1 to 1 µM

$$$$
>  <Compound>
C#Cc1cccc2cc(O)cc(-c3ncc4c(N5CC6CCC(C5)N6)nc(OCC5(CN6CCN(CC7CCN(c8ccc9c(c8)n(C)c(=O)n9C8CCC(=O)NC8=O)CC7)CC6)CC5)nc4c3F)c12 (stereo not drawn) [Compound 64]

>  <Experimental value>
< 0.1 µM

$$$$
>  <Compound>
C#Cc1c(F)ccc2cc(O)cc(-c3ncc4c(N5CC6CCC(C5)N6)nc(OCC5(CN6CCN(CC7CCN(c8ccc9c(c8)CN(C8CCC(=O)NC8=O)C9=O)CC7)CC6)CC5)nc4c3F)c12 (stereo not drawn) [Compound 43]

>  <Experimental value>
< 0.1 µM

$$$$

Next:
Record C#Cc1cccc2cc(O)cc(-c3ncc4c(N5CC6CCC(C5)N6)nc(OCC5(CN6CCN(CC7CCN(c8ccc9c(c8)C(=O)N(C8CCC(=O)N(C)C8=O)C9=O)CC7)CC6)CC5)nc4c3F)c12 (stereo not drawn) [Compound 42] . Reported DC50: > 1 µM

----------
Assign Dmax to each entry below.
- Target system: KRAS(G12D) (Homo sapiens, UniProt P01116, G12D)
- Protocol notes: KRAS Western Blot Protein Degradation Assay, GP2D
- Type: cell-based
- Set-up: Cell lines SW1990 and GP2D that express KRAS(G12D); host or cells: GP2D
- Applied conditions: GP2d, read-out: WB data GP2D DMax
- Sequence (P01116 1-185 isoform P01116-2 G12D limits assumed): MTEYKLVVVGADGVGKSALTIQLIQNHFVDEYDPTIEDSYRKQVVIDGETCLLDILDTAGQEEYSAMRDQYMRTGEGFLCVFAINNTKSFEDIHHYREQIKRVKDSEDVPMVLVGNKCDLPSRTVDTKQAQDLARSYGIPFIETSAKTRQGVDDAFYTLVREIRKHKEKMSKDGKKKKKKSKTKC
Counter-ions that a name gives are not always drawn.

Worked examples, 2 compounds total:
>  <Compound>
C#Cc1c(F)ccc2cc(O)cc(-c3nc(OC)c4c(N5CC6CCC(C5)N6CC#N)nc(OCC5(CN6CCN(CC7CCN(c8ccc9c(c8)CN(C8CCC(=O)NC8=O)C9=O)CC7)CC6)CC5)nc4c3F)c12 (stereo not drawn) [Compound 100, formate]

>  <Dmax>
> 50%

$$$$
>  <Compound>
[2H]C([2H])([2H])Oc1nc(-c2cc(O)cc3ccc(F)c(C#C)c23)c(F)c2nc(OCC3(CN4CCN(CC5CCN(c6ccc7c(c6)CN(C6CCC(=O)NC6=O)C7=O)CC5)CC4)CC3)nc(N3CC4CCC(C3)N4CC(F)(F)F)c12 (stereo not drawn) [Compound 97]

>  <Dmax>
10 to 50%

$$$$

Next:
Record [2H]C([2H])([2H])Oc1nc(-c2cc(O)cc3ccc(F)c(C#C)c23)c(F)c2nc(OCC3(CN4CCN(CC5CCN(c6ccc7c(c6)CN(C6CCC(=O)NC6=O)C7=O)CC5)CC4)CC3)nc(N3CC4CCC(C3)N4CC(C)C)c12 (stereo not drawn) [Compound 96] . Reported Dmax: 10 to 50%

----------
- System: AGS
- Protocol notes: CellTiter-Glo Reagent cancer cell line proliferation assay, AGS
- Format: cell-based, human
- Applied conditions: Homo sapiens, 24 h, KRAS(G12D) heterozygous
pIC50: −log10 of the molar value.
Measured attribute: pIC50

List pIC50 for every entry below, keeping the order given.
1. C#Cc1c(F)ccc2cc(O)cc(-c3nc(OC)c4c(N5CC6CCC(C5)N6C(=O)CC(C)C#N)nc(OCC5(CNC6CCC(=O)NC6=O)CC5)nc4c3F)c12 (stereo not drawn)
2. C#Cc1c(F)ccc2cc(O)cc(-c3nc4c5c(nc(OCC6(CN7CCN(CC8CCN(c9ccc%10c(c9)CN(C9CCC(=O)NC9=O)C%10=O)CC8)CC7)CC6)nc5c3F)N(CC(F)F)[C@@H](C)CO4)c12 (stereo partly drawn)
3. C#Cc1cccc2cc(O)cc(-c3ncc4c(N5CC6CCC(C5)N6)nc(OCC5(CN6CCN(CC7CCN(c8ccc9c(c8)C(=O)N(C8CCC(=O)N(C)C8=O)C9=O)CC7)CC6)CC5)nc4c3F)c12 (stereo not drawn)

**A:**
1. > 7.00
2. > 7.00
3. > 7.00

----------
- Test system: AGS
- Protocol notes: CellTiter-Glo Reagent cancer cell line proliferation assay, AGS
- Type: cell-based, human
- Applied conditions: Homo sapiens, 24 h, KRAS(G12D) heterozygous
- Protocol: […] Cells were plated in 96-well tissue culture plates at 4,000 cells/well and incubated at 37° C./5% CO2 for 24 hr in 100 μl of media. […] Results were analyzed and IC50-values were calculated in GraphPad 7 software.
Counter-ions that a name gives are not always drawn.
Assign IC50 to each entry below.

Worked examples, 3 compounds total:
>  <Compound>
C#Cc1c(F)ccc2cc(O)cc(-c3ncc4c(N5CC6CCC(C5)N6)nc(OCC5(CN6CCN(CC#Cc7ccc8c(c7)CN(C7CCC(=O)NC7=O)C8=O)CC6)CC5)nc4c3F)c12 (stereo not shown)

>  <Target system>
AGS

>  <IC50>
< 100 nM

$$$$
>  <Compound>
[2H]C([2H])([2H])Oc1nc(-c2cc(O)cc3ccc(F)c(C#C)c23)c(F)c2nc(OCC3(CN4CCN(CC5CCN(c6ccc(NC7CCC(=O)NC7=O)cc6)CC5)CC4)CC3)nc(N3CC4CCC(C3)N4C(=O)CC#N)c12 (stereo not shown)

>  <Target system>
AGS

>  <IC50>
100 to 1000 nM

$$$$
>  <Compound>
[2H]C([2H])([2H])Oc1nc(-c2cc(O)cc3ccc(F)c(C#C)c23)c(F)c2nc(OCC3(CN4CCN(CC5CCN(c6ccc7c(c6)CN(C6CCC(=O)NC6=O)C7=O)CC5)CC4)CC3)nc(N3CC4CCC(C3)N4CC3CC3)c12 (stereo not shown)

>  <Target system>
AGS

>  <IC50>
> 1000 nM

$$$$

Next:
Record C#Cc1c(F)ccc2cc(O)cc(-c3nc(OC)c4c(N5CC6CCC(C5)N6CC#N)nc(OCC5(CN6CCN(CC7CCN(c8ccc9c(c8)CN(C8CCC(=O)NC8=O)C9=O)CC7)CC6)CC5)nc4c3F)c12 (stereo not shown) [Compound 100, formate] . Reported IC50: < 100 nM

----------
- Target system: KRAS(G12V) (Homo sapiens, UniProt P01116, G12V)
- Construct: anti-KRAS Western blot degradation by PROTACs recruiting CRBN or VHL
- Sequence (P01116 1-188 isoform P01116-2 G12V): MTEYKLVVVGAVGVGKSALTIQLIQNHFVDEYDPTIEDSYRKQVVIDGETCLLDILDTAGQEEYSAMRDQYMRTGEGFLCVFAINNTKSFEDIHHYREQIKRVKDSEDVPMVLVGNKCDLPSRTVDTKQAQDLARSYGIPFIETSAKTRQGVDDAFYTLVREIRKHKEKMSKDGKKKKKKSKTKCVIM
- Protocol notes: KRAS Western Blot Protein Degradation Assay, NCIH727
- Assay type: cell-based
- Applied conditions: NCI-H727, 24 hr, read-out: WB data NCIH727 DMax
Measured attribute: Dmax

Worked examples, 3 compounds total:
>  <Compound>
C#Cc1c(F)ccc2cc(O)cc(-c3ncc4c(N5CC6CCC(C5)N6C(=O)C(C)(C)C#N)nc(OCC5(CN6CCN(CC7CCN(c8ccc9c(c8)CN(C8CCC(=O)NC8=O)C9=O)CC7)CC6)CC5)nc4c3F)c12 (centres unmarked)

>  <Measured attribute>
Dmax

>  <Experimental value>
10 to 50%

$$$$
>  <Compound>
C#Cc1c(F)ccc2cc(O)cc(-c3nc(OC)c4c(N5CC6CCC(C5)N6C(=O)CC#N)nc(OCC5(CN6CCN(CC7CCN(c8ccc9c(c8)CN(C8CCC(=O)NC8=O)C9=O)CC7)CC6)CC5)nc4c3F)c12 (centres unmarked)

>  <Measured attribute>
Dmax

>  <Experimental value>
> 50%

$$$$
>  <Compound>
C#Cc1c(F)ccc2cc(O)cc(-c3ncc4c(N5CC6CCC(C5)N6C(=O)C5(C#N)CC5)nc(OCC5(CN6CCN(CC7CCN(c8ccc9c(c8)CN(C8CCC(=O)NC8=O)C9=O)CC7)CC6)CC5)nc4c3F)c12 (centres unmarked)

>  <Measured attribute>
Dmax

>  <Experimental value>
> 50%

$$$$

List Dmax for every entry below, keeping the order given.
1. C#Cc1c(F)ccc2cc(O)cc(-c3ncc4c(N5CC6CCC(C5)N6C(=O)[C@@H](C)C#N)nc(OCC5(CN6CCN(CC7CCN(c8ccc9c(c8)CN(C8CCC(=O)NC8=O)C9=O)CC7)CC6)CC5)nc4c3F)c12 (some centres unmarked)
2. O=CO.[2H]C([2H])([2H])Oc1nc(-c2cc(O)cc3ccc(F)c(C#C)c23)c(F)c2nc(OCC3(CN4CCN(CC5CCN(c6ccc7c(c6)CN(C6CCC(=O)NC6=O)C7=O)CC5)CC4)CC3)nc(N3CC4CCC(C3)N4C(=O)CCC#N)c12 (centres unmarked)

**A:**
> 50%
> 50%
